test system: NIH3T3; experiment: Cytotoxic Profiling of Annotated Libraries Using Quantitative High-Throughput Screening (AID 1296008); settings: Five cell lines viability, CellTiter-Glo ATP luminescence, 48-72 h; also: nearly all actives have a fitted effect of over 60% in size
Records with an inconclusive call do not appear. Active and inactive are the calls of the source. Calls follow the shape of the dose curve; as a rule, active = well fitted inhibition curve with a large enough effect; inconclusive = small, poorly fitted or top-dose-only effect; inactive = flat fitted curve, though single readings scatter.
Return exactly one item of active, inactive

smiles structure: C=C1C(=O)O[C@H](CCC)[C@H]1C(=O)O
assigned class: inactive
//
smiles structure: CC[C@H](CO)Nc1nc(NCc2ccc(-c3ccccn3)cc2)c2ncn(C(C)C)c2n1
assigned class: active
//
smiles structure: C[C@H]1[C@H](O)O[C@@H]2O[C@@]3(C)CC[C@H]4[C@H](C)CC[C@@H]1[C@@]24OO3
assigned class: active
//
smiles structure: Cc1ccc(-c2ccc3ncc4c(c3n2)n(C2CCN(C(=O)[C@H](C)O)CC2)c(=O)n4C)cn1
assigned class: active
//
smiles structure: CC[C@@H](N)CNc1ccnc(-c2cc(-c3cnn(C)c3)ccc2O)n1
assigned class: active

Now look at this one.
Short answer needed: outcome of this test for O=S(=O)(NCC1CC1)c1ccc(Nc2nccc(N3CCCc4cc(O)ccc43)n2)cc1 ?
active
